System: HEK-293T
Protocol Description: Multiplex assay against HEK293T
Format: toxicity, cell-based
Protocol Conditions: human, 12 h, 10 µM, compound concentration 10 uM, replicate 2
Measured Quantity: Population Membrane Permeable-Phenotype (%)
Give your result in % as a bare value.

COc1cc(C(=O)N(CCCc2ccccc2)Cc2ccc(CC(=O)O)cc2)cc(OC)c1C has a reported Population Membrane Permeable-Phenotype (%) of 0

Briefly, Population Membrane Permeable-Phenotype (%) measured for COc1cc(NC(=O)CCN2CCC(OC(=O)Nc3ccccc3-c3ccccc3)CC2)c(Cl)cc1CNC[C@H](O)c1ccc(O)c2[nH]c(=O)ccc12 : 1

# molecule CN(C)CCCc1cc(C(=O)Nc2ccc(-c3ccncc3)cc2)ccc1O.Cl.Cl ; its Population Membrane Permeable-Phenotype (%) = 2

Just so you know, measured Population Membrane Permeable-Phenotype (%) for C[C@H]1[C@H]2CC[C@H]3[C@@H]4CC=C5C[C@@H](N(C)C)CC[C@]5(C)[C@H]4CC[C@]23CN1C came out at 0

Query Cc1ccc(F)cc1C(=O)Nc1ccc(C(=O)N2Cc3cccn3Cc3ccccc32)c(Cl)c1 yields Population Membrane Permeable-Phenotype (%) of 1

Record CC(C)(C)c1ccc(S(=O)(=O)Nc2ccc(Cl)cc2C(=O)c2cc[n+]([O-])cc2)cc1 , field Population Membrane Permeable-Phenotype (%): 1

Note to self: Population Membrane Permeable-Phenotype (%) recorded for CNC[C@H](O)c1ccc(O)c(O)c1 [EPINEPHRINE] was 0

The reported value for CN1CCN2c3ncccc3Cc3ccccc3C2C1 (stereo not given) in terms of Population Membrane Permeable-Phenotype (%) is 1

Per the records, this molecule ( N#Cc1c(N)nc(SCc2csc(-c3ccc(Cl)cc3)n2)c(C#N)c1-c1ccc(OCCO)cc1 ) has Population Membrane Permeable-Phenotype (%) equal to 1

// recorded Population Membrane Permeable-Phenotype (%) for c1cc(OCCCN2CCCCC2)ccc1CN1CCCCC1 : 1

###

Tested on: U2OS
Protocol Description: Multiplex assay against U2OS
Format: toxicity, cell-based
Protocol Conditions: human, 48 h, 10 µM, compound concentration 10 uM, replicate 1
Binned Total Cell Count; ranges: I: < 300; II: ≥ 300 and < 400; III: ≥ 400

**Query** Which Total Cell Count band matches CC(C)(C)c1ccc(S(=O)(=O)Nc2ccc(Cl)cc2C(=O)c2cc[n+]([O-])cc2)cc1 [VERCIRNON] ?
**Result** III

**Query** Hi there! Could you help me figure out the category for CC(=O)NCCc1c(Cc2ccccc2)[nH]c2ccccc12 [LUZINDOLE] please?
**Result** III

**Query** Tag the class for COc1cc(C(=O)N(CCCc2ccccc2)Cc2ccc(CC(=O)O)cc2)cc(OC)c1C
**Result** III

**Query** Record CN(C)c1ccnc2sc3c(=O)n(N4CCCCCC4)cnc3c12 — which class?
**Result** II

**Query** Record Cc1ccc(/C(=C\CN2CCCC2)c2ccccn2)cc1 [TRIPROLIDINE] — which class?
**Result** III

**Query** State the band of CSc1ccccc1N1CCN(CCCCCC(=O)NC2CCCc3ccccc32)CC1.Cl (stereo not drawn)
**Result** I

**Query** Lab note: sort O=C(NCCO)c1cccc(-c2cc(Nc3ccc(OC(F)(F)F)cc3)ncn2)c1 into the matching Total Cell Count band.
**Result** III

**Query** Bin? O=C1COc2nccc(-c3ccccc3F)c2CN1Cc1cc(C(F)(F)F)cc(C(F)(F)F)c1
**Result** I

**Query** Which class holds CSCC[C@H](NC=O)C(=O)N[C@@H](CC(C)C)C(=O)N[C@@H](Cc1ccccc1)C(=O)O ?
**Result** II

**Query** State the band of CC[C@H]1OC(=O)[C@H](C)[C@@H](O[C@H]2C[C@@](C)(OC)[C@@H](O)[C@H](C)O2)[C@H](C)[C@@H](O[C@@H]2O[C@H](C)C[C@H](N(C)C)[C@H]2O)[C@@]2(C)CC(C)=C(O2)[C@H](C)[C@@H](O)[C@]1(C)O
**Result** I

**Query** Tag the class for Oc1c(CN2CCN(c3ccccn3)CC2)cc(Cl)c2cccnc12
**Result** I

**Query** Quick check: band for Cc1ccc(C(C)(O)c2nc3ccccc3s2)c(C)c1 (stereo not drawn)
**Result** II

**Query** Could you tell me which band O=C(NCC(=O)N1CC[C@H](N[C@H]2CC[C@@](O)(c3ccc(-c4ncccn4)cn3)CC2)C1)c1cccc(C(F)(F)F)c1 [PF-4136309] belongs to?
**Result** II

**Query** Please classify: c1cc(OCCCN2CCCCC2)ccc1CN1CCCCC1 [JNJ-5207852]
**Result** II

**Query** Band of C[C@H](NC(=O)c1c(C(F)F)nn(C)c1Oc1cccc(C(F)(F)F)c1)c1ccc(C(=O)O)cc1 [PALUPIPRANT] ?
**Result** III

**Query** Category of CCCn1c(=O)c2[nH]c(C3CCCC3)nc2n(CCC)c1=O :
**Result** II

**Query** // bin(item) where item = COc1ccc2c(c1)C(C(=O)N(Cc1ccc(N(C)C)cc1)c1ccc(C(C)C)cc1)CCC2.Cl (stereo not drawn)
**Result** I

###

Exercise: for every item that follows, state its recorded Population Normal (%).
Test system: Fibroblast
Protocol Description: Multiplex assay against human fibroblast
Assay type: toxicity, cell-based
Protocol Conditions: 48 h, 10 µM, compound concentration 10 uM, replicate 1
Provide the reading as a plain figure in %.

Entry Cl.Clc1ccc2nsnc2c1NC1=NCCN1 [TIZANIDINE HYDROCHLORIDE] — recorded Population Normal (%) = 97

Record summary for CC[C@H]1OC(=O)[C@H](C)[C@@H](O[C@H]2C[C@@](C)(OC)[C@@H](O)[C@H](C)O2)[C@H](C)[C@@H](O[C@@H]2O[C@H](C)C[C@H](N(C)C)[C@H]2O)[C@@]2(C)CC(C)=C(O2)[C@H](C)[C@@H](O)[C@]1(C)O : reported Population Normal (%) = 91

// sample O=C(NCCO)c1cccc(-c2cc(Nc3ccc(OC(F)(F)F)cc3)ncn2)c1 , its Population Normal (%) was 86

Looking up O=C(NCC(=O)N1CC[C@H](N[C@H]2CC[C@@](O)(c3ccc(-c4ncccn4)cn3)CC2)C1)c1cccc(C(F)(F)F)c1 [PF-4136309] , I found its Population Normal (%) recorded as 93

In plain terms, O=C(O)c1cc2ccccc2c(Cc2c(O)c(C(=O)O)cc3ccccc23)c1O [PAMOIC ACID] has a documented Population Normal (%) of 94

Noted for CCNC1(C(N)=O)CCN(c2ncnc3c2nc(-c2ccccc2Cl)n3-c2ccc(Cl)cc2)CC1 [OTENABANT] : its Population Normal (%) reads 91

Form: compound = Cc1ccc(F)cc1C(=O)Nc1ccc(C(=O)N2Cc3cccn3Cc3ccccc32)c(Cl)c1 [LIXIVAPTAN] ; Population Normal (%) = 97

response.value for CC(=O)NCCc1c(Cc2ccccc2)[nH]c2ccccc12 [LUZINDOLE] (field: Population Normal (%)) = 96

Value of measured Population Normal (%) for the entry O=C(O)Cc1ccccc1Nc1c(Cl)cccc1Cl [DICLOFENAC] : 96

Per the record, CNC[C@H](O)c1ccc(O)c(O)c1 [EPINEPHRINE] has Population Normal (%) of 97

// recorded Population Normal (%) for CN(C)c1ccnc2sc3c(=O)n(N4CCCCCC4)cnc3c12 : 91

Quick note, Population Normal (%) for CCCC(CCC)C(=O)O [VALPROIC ACID] landed at 98

Measured Population Normal (%), Oc1c(CN2CCN(c3ccccn3)CC2)cc(Cl)c2cccnc12 : 97

Sample C[C@@H]1C[C@H]2[C@@H]3CCC4=CC(=O)C=C[C@]4(C)[C@@]3(F)[C@@H](O)C[C@]2(C)[C@@]1(O)C(=O)CO [DEXAMETHASONE] ; Population Normal (%) observed: 95

Note to self: Population Normal (%) recorded for CCOc1c2c(c(OCC)c3ncccc13)CN(c1ccc(CS(=O)(=O)NC(=O)Cc3ccccc3OC)cc1C)C2=O was 92

Looking up Cc1nc2ccc(Oc3ccc(F)cc3)cc2c(=O)n1C[C@H]1CCCN(C(C)C)C1.Cl , I found its Population Normal (%) recorded as 90

Documented Population Normal (%) of CC(C)(C)c1ccc(S(=O)(=O)Nc2ccc(Cl)cc2C(=O)c2cc[n+]([O-])cc2)cc1 [VERCIRNON] : 97

What the record says about CSc1ccccc1N1CCN(CCCCCC(=O)NC2CCCc3ccccc32)CC1.Cl (stereo not drawn) : Population Normal (%) is 91

Measured Population Normal (%) of CN(C)CCCc1cc(C(=O)Nc2ccc(-c3ccncc3)cc2)ccc1O.Cl.Cl : 88

For c1cc(OCCCN2CCCCC2)ccc1CN1CCCCC1 [JNJ-5207852] the compound record lists Population Normal (%) as 97

Recorded Population Normal (%) (compound CN1CCN2c3ncccc3Cc3ccccc3C2C1 (stereo not drawn) [MIRTAZAPINE] ): 94

Record N#Cc1c(N)nc(SCc2csc(-c3ccc(Cl)cc3)n2)c(C#N)c1-c1ccc(OCCO)cc1 [CAPADENOSON] . Reported Population Normal (%): 97

Record Cc1ccccc1C(=O)Nc1ccc(C(=O)N2CCCC(N(C)C)c3ccccc32)cc1.Cl (stereo not drawn) . Reported Population Normal (%): 92

Attribution: ChEMBL document CHEMBL5058577
